All figures here come from PubChem BioAssay (Tox21).

Assay: qHTS assay to identify small molecule agonists of the NFkB signaling pathway - cell viability counter screen (AID 1159515); further: nearly all actives have a fitted effect of over 55% in size
Settings: NFkB-bla ME-180 viability, CellTiter-Glo luminescence, 5 h; series mostly up to 61 µM
Inconclusive results are not listed. Active and inactive are the calls of the source. The call rests on the fitted dose curve.
Answer with one of the outcomes active, inactive

Query: Any idea what this test logged for COC(=O)c1ccccc1S(=O)(=O)NC(=O)Nc1nc(C)nc(OC)n1 ?
Result: inactive

====

Assay: qHTS RealTime-Glo MT Cell Viability Assay in HepG2 cells - 16 hour (AID 1224885); further: nearly all actives have a fitted effect of over 50% in size
Details: RealTime-Glo luminescence; series mostly up to 76.8 µM
Inconclusive results are not listed. Activity calls are given as the source filed them. Calls follow the shape of the dose curve; as a rule, active = well fitted cell-killing curve with a large enough effect in the repeat runs; inconclusive = weak or mixed curves; inactive = flat fitted curve, though single readings scatter.
Output constraint: value belongs to active, inactive

Illustrative cases are given below, each with its answer.
CN=C=O :: inactive
Cc1ccc([N+](=O)[O-])[c]2c1[O][Hg]2 :: active
CCC[CH2][Sn]([CH2]CCC)([CH2]CCC)[O][Sn]([CH2]CCC)([CH2]CCC)[CH2]CCC :: active

Shifting focus to the compound that follows.
Query: Dear all, I need the recorded test outcome for CN , thank you.
Result: inactive
